Molecular target: receptor binding domain (RBD) of the S1-subunit of SARS-CoV-2 glycoprotein S (SARS-CoV-2, UniProt P0DTC2 319-541)
Test: ACE2:RBD competition, antibody at 0.5 µg/ml
Assay endpoint: ACE2 bound to RBD at 0.5 µg/ml antibody

Look at this binder and give its reported ACE2 bound to RBD at 0.5 µg/ml antibody. YU505-A02 (antibody, V domains shown) VH: QVQLVESGAEVKKPGSSVKVSCKASGGTFSSYAISWVRQAPGQGLEWMGGIIPIFGTANYAQKFQGRVTITADESTSTAYMELSSLRSEDTAVYYCARQIWAYDSSGYPVPAEYFQHWGQGTLVTVSS VL: QSVLTQPPSVSGAPGQRVTISCTGSSSNIGAGYDVHWYQQLPGTAPKLLIYGNSNRPSGVPDRFSGSKSGTSASLAITGLQAEDEADYYCQSYDSSLSGVVFGGGTKLTVL
< 60%

Ref: patent US20240059758A1
